This section presents molecules with their documented IC50 values.
# Tgt: Recombinant purified human JAK3 (Homo sapiens, UniProt P52333)
# Sequence (P52333 1-1124): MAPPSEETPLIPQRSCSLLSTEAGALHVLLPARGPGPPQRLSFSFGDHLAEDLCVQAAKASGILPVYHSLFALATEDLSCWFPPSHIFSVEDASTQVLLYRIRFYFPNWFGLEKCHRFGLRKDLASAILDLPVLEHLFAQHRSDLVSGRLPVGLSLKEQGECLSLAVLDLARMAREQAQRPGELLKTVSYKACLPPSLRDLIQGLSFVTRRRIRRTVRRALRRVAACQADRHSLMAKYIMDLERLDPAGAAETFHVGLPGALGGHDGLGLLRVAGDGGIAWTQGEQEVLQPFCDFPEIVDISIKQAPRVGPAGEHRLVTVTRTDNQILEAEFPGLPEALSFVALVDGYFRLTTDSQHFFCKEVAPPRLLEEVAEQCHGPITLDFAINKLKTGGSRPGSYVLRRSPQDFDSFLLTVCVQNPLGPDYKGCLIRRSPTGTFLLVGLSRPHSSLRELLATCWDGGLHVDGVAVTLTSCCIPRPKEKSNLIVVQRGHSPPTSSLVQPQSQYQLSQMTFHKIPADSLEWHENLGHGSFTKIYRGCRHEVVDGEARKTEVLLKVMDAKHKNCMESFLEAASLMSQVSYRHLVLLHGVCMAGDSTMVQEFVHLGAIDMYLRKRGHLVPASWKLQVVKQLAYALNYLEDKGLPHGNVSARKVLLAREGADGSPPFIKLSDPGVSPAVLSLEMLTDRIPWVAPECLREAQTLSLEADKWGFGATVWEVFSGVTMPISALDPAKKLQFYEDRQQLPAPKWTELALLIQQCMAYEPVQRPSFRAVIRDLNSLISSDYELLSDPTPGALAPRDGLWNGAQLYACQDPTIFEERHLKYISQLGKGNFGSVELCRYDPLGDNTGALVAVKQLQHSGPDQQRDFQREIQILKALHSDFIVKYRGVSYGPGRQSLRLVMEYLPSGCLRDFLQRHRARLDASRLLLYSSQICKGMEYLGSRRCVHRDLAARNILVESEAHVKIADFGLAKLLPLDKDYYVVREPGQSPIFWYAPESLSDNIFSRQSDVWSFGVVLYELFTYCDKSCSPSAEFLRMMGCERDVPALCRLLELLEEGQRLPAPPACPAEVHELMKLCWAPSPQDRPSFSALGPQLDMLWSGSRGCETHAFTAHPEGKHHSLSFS
# Assay: JAK3 kinase inhibitory activity, ADP-Glo kinase assay (Promega V9441)
# Protocol Conditions: ATP 5 uM, 4 ng JAK3 per reaction, 1 hour 30 °C, chemiluminescence
Quantity Name: IC50 (nM)

1. C=CC(=O)N1CC[C@@H](C)[C@@H](Nc2nc(Nc3cnn(CC)c3)nc3[nH]ncc23)C1; 54.8
2. C=CC(=O)N1CCC[C@@H](Nc2nc(Nc3cnn(CC(C)C)c3)nc3[nH]nc(C)c23)C1; 18
3. C=CC(=O)N1CCC[C@@H](N(C)c2nc(Nc3cnn(CC)c3)nc3[nH]ccc23)C1; 1.8
4. C=CC(=O)N1CCC[C@@H](Nc2nc(Nc3cnoc3)nc3[nH]ccc23)C1; 0.9

Just for reference, patent EP3478687B1 is where these values come from.
